The values you see were collected from patent US8697840B2.

Tested on: bleo-induced collagen deposition in mouse lung
Test: Mason's Trichrome stain for collagen of lung sections of bleo-treated mice
Format: in vivo
Details: bleo-treated animals, peptide one day after bleo, day 21, trichrome stain

# polymer sequence, Collagen content in lung section
records = [
    ("WGIDKAFFTTSTVTYKWFRY [CP-1, scrambled control peptide for PP-1 with the same amino acid composition]", "Increased"),
    ("AESTYHHLSLGYMYTLN [CP-2]", "Increased"),
]
